Assay system: human calcium receptor (Homo sapiens)
Protocol notes: Evaluation of antagonistic action on calcium receptor using reporter gene (luciferase)
Measurement parameters: transformed rat adrenal derived cells, 5 mM calcium chloride, culture 4 hrs, luciferase activity; read-out: Reporter gene assay (IC50, concentration showing 50% inhibitory rate)
Procedure: Evaluation of Antagonistic Action on Calcium Receptor Using Reporter Gene Luciferase cDNA and human calcium receptor cDNA were introduced into a cell strain derived from rat adrenal to transform the cells, and the transformed cells were cultured in a medium (80 μl, F12 medium containing 0.5% dialyzed horse serum and 0.25% dialyzed bovine fetal serum). […] After culture for 4 hrs, luciferase substrate was added and the luciferase activity was measured with a photoluminometer. […]
Listed here: items and their measured IC50.
Value expressed in nM; do not type the unit.

Known results for compounds:
>>> result_number("C[C@@H](OC[C@H](O)CNC(C)(C)Cc1ccc2ccccc2c1)c1ccccc1-c1ccc(C(=O)O)cc1F [Example 1-62]")
8
>>> result_number("Cc1cc(-c2ccccc2[C@@H](C)OC[C@H](O)CNC(C)(C)Cc2ccc3ccccc3c2)ccc1C(=O)O [Example 1-12]")
13
>>> result_number("C[C@@H](OC[C@H](O)CNC(C)(C)Cc1ccc(Cl)c(Cl)c1)c1ccccc1-c1ccc(C(=O)O)c(C(F)(F)F)c1 [Example 1-31]")
5

Turning to the following compound.
Q: Give its IC50 value. Item: C[C@@H](OC[C@H](O)CNC(C)(C)Cc1ccc2ccccc2c1)c1ccccc1-c1ccc(C(=O)O)c(Cl)c1 [Example 1-68]
Result: 3

====

Assay system: human calcium receptor (Homo sapiens)
Sequence (P41180 20-1078): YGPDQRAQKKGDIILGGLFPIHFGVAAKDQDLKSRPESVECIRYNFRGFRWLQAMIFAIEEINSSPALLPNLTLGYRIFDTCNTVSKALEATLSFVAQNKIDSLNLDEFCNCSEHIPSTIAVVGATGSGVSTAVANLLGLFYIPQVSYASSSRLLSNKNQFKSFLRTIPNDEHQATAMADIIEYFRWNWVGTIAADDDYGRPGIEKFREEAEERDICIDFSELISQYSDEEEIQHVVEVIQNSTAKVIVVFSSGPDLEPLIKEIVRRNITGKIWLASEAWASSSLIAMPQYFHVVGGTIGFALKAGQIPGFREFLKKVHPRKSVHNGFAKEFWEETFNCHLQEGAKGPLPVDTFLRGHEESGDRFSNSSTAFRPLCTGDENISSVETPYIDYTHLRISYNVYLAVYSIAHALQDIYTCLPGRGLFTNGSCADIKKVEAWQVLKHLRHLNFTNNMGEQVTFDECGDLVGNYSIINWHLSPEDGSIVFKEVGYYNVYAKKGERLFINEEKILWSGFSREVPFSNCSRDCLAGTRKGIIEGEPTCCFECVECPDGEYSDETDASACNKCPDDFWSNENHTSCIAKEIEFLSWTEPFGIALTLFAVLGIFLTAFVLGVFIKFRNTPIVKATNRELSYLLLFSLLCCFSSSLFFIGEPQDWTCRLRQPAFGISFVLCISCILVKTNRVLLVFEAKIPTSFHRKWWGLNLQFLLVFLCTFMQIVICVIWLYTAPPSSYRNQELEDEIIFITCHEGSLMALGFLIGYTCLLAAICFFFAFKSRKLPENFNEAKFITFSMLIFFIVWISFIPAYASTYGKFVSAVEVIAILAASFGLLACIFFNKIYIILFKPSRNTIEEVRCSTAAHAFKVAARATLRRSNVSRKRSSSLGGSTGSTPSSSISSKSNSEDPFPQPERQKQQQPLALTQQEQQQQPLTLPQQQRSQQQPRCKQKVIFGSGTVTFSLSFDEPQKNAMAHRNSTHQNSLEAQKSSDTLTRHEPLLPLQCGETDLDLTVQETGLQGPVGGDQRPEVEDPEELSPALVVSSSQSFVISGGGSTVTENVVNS
Protocol notes: Evaluation of antagonistic action on calcium receptor using reporter gene (luciferase)
Measurement parameters: transformed rat adrenal derived cells, 5 mM calcium chloride, culture 4 hrs, luciferase activity; read-out: Reporter gene assay (IC50, concentration showing 50% inhibitory rate)
pIC50: −log10 of the molar value.
Mark 0 (no) for pIC50 values under 8, and 1 (yes) for everything at or above.

>>> discrete_label("Cc1ccc(CC(C)(C)NC[C@@H](O)CO[C@H](C)c2ccccc2-c2ccc(C(=O)O)c(CC(C)C)c2)cc1F [Example 1-46]")
"1 (yes)"
>>> discrete_label("Cc1ccc(CC(C)(C)NC[C@@H](O)CO[C@H](C)c2ccccc2-c2cc3c(c(C(=O)O)c2)OCC3)cc1F [Example 1-78]")
"0 (no)"
>>> discrete_label("Cc1ccc(CC(C)(C)NC[C@@H](O)CO[C@H](C)c2ccccc2OCc2ccc(C(=O)O)cc2C)cc1F [Example 2-26]")
"0 (no)"
>>> discrete_label("Cc1cc(-c2ccccc2[C@H](OC[C@H](O)CNC(C)(C)Cc2ccc(Cl)c(F)c2)C2CC2)ccc1C(=O)O [Example 1-19]")
"1 (yes)"
>>> discrete_label("Cc1ccc(CC(C)(C)NC[C@@H](O)CO[C@H](C)c2ccccc2-c2ccc(C(=O)O)c(C)c2C)cc1F [Example 1-42]")
"0 (no)"

Q: Confirm if pIC50 reported for the compound COc1cc(-c2ccccc2[C@@H](C)OC[C@H](O)CNC(C)(C)Cc2ccc(C)c(F)c2)ccc1C(=O)O [Example 1-80] is 8 or above.
Result: 0 (no)

Q: Confirm if pIC50 reported for the compound C[C@@H](OC[C@H](O)CNC(C)(C)Cc1ccc2ccccc2c1)c1ccccc1-c1ccc(C(=O)O)c(N(C)C)c1 [Example 1-77] is 8 or above.
Result: 0 (no)

Q: Confirm if pIC50 reported for the compound CC(OC[C@H](O)CNC(C)(C)Cc1ccc2ccccc2c1)c1ccccc1OCc1ccc(C(=O)O)cc1 (some centres unmarked) [2-22′] is 8 or above.
Result: 0 (no)

Q: Confirm if pIC50 reported for the compound Cc1cc(-c2ccccc2[C@@H](C)OC[C@H](O)CNC(C)(C)Cc2ccc(Cl)cc2F)ccc1C(=O)O [Example 1-110] is 8 or above.
Result: 0 (no)

====

Assay system: human calcium receptor (Homo sapiens)
Protocol notes: Evaluation of antagonistic action on calcium receptor using reporter gene (luciferase)
Measurement parameters: transformed rat adrenal derived cells, 5 mM calcium chloride, culture 4 hrs, luciferase activity; read-out: Reporter gene assay (IC50, concentration showing 50% inhibitory rate)
Readout: IC50 (nM)
Value expressed in nM; do not type the unit.

>>> result_number("Cc1ccc(CC(C)(C)NC[C@@H](O)COC(C)c2ccccc2Oc2ccc(C(=O)O)cc2)cc1F (stereo partly shown)")
17

Q: Give its IC50 value. Item: COc1ccc(CC(C)(C)NC[C@@H](O)CO[C@H](C)c2ccccc2-c2ccc(C(=O)O)c(C(F)(F)F)c2)c(F)c1
Result: 82

Q: Give its IC50 value. Item: COC(=O)c1ccc(Oc2ccccc2C(C)OC[C@H](O)CNC(C)(C)Cc2ccc3ccccc3c2)cc1 (stereo partly shown)
Result: 71

Q: Give its IC50 value. Item: CCc1ccc(CC(C)(C)NC[C@@H](O)CO[C@H](C)c2ccccc2-c2ccc(C(=O)O)c(C)c2)cc1F
Result: 15

====

Assay system: human calcium receptor (Homo sapiens)
Protocol notes: Evaluation of antagonistic action on calcium receptor using reporter gene (luciferase)
Measurement parameters: transformed rat adrenal derived cells, 5 mM calcium chloride, culture 4 hrs, luciferase activity; read-out: Reporter gene assay (IC50, concentration showing 50% inhibitory rate)
pIC50: −log10 of the molar value.
Mark 0 (no) for pIC50 values under 8, and 1 (yes) for everything at or above.

Completed entries (count: 8):
>>> discrete_label("Cc1cc(-c2ccccc2[C@@H](C)OC[C@H](O)CNC(C)(C)Cc2ccc(Cl)c(Cl)c2)ccc1C(=O)O")
"1 (yes)"
>>> discrete_label("Cc1cc(C(=O)O)ccc1-c1ccccc1[C@@H](C)OC[C@H](O)CNC(C)(C)Cc1ccc(Cl)c(Cl)c1")
"0 (no)"
>>> discrete_label("CC(C)c1cc(-c2ccccc2[C@@H](C)OC[C@H](O)CNC(C)(C)Cc2ccc(Cl)c(F)c2)ccc1C(=O)O")
"1 (yes)"
>>> discrete_label("CC(OC[C@H](O)CNC(C)(C)Cc1cnc2ccccc2c1)c1ccccc1Oc1ccc(C(=O)O)cc1 (some centres unmarked)")
"0 (no)"
>>> discrete_label("Cc1ccc(CC(C)(C)NC[C@@H](O)CO[C@H](C)c2ccccc2-c2c(C)cc(C(=O)O)cc2C)cc1F")
"0 (no)"
>>> discrete_label("Cc1cc(-c2ccccc2[C@@H](C)OC[C@H](O)CNC(C)(C)Cc2cccc(Cl)c2)ccc1C(=O)O")
"0 (no)"
>>> discrete_label("C[C@@H](OC[C@H](O)CNC(C)(C)Cc1ccc(Cl)c(F)c1)c1ccccc1-c1ccc(C(=O)O)c(CO)c1")
"0 (no)"
>>> discrete_label("CC(OC[C@H](O)CNC(C)(C)Cc1ccc2ccccc2c1)c1ccccc1OCc1cccc(C(=O)O)c1 (some centres unmarked) [2-21′]")
"0 (no)"

Q: Confirm if pIC50 reported for the compound COc1cc(C(=O)O)cc(OC)c1Oc1ccccc1C(C)OC[C@H](O)CNC(C)(C)Cc1ccc(C)c(F)c1 (some centres unmarked) is 8 or above.
Result: 0 (no)

Q: Confirm if pIC50 reported for the compound Cc1cc(-c2ccccc2[C@@H](C)OC[C@H](O)CNC(C)(C)Cc2cc(C(F)(F)F)cc(C(F)(F)F)c2)ccc1C(=O)O is 8 or above.
Result: 0 (no)

Q: Confirm if pIC50 reported for the compound Cc1cc(C(=O)O)ccc1-c1ccccc1[C@@H](C)OC[C@H](O)CNC(C)(C)Cc1ccc2ccccc2c1 is 8 or above.
Result: 0 (no)
